# Tested on: OVCAR-3
# assay_overview: NCI tumour cell line growth inhibition, 48 h
Activity calls are given as the source filed them. Cut-off read from the data, not from the text of the source: active = GI50 up to about 1.1 µM and inactive = higher.
Possible outcomes: active, inactive

INSERT INTO measurements (compound, class_assignment) VALUES
  ('CC1Cc2c(N)nc(N3CCOCC3)nc2NC1=O (stereo not drawn)', 'inactive'),
  ('C[N+]1([O-])CCC(O)(C2CC2)CC1 (stereo not drawn)', 'inactive'),
  ('COC(=O)C12CCC(C(F)(F)C1=O)C2(C)C (stereo not drawn)', 'inactive'),
  ('O=C1/C(=C\c2ccc(F)cc2)CCOc2c1ccc1ccccc21', 'inactive'),
  ('Cc1c2ccccc2cc2nc3ccccc3n12', 'inactive'),
  ('COC(=O)C1[C@@H](C(=O)OC)C(=O)O[C@H]1c1cc(OC)c(OC)c(OC)c1 (stereo partly drawn)', 'inactive'),
  ('N=S(c1ccccc1[N+](=O)[O-])c1ccccc1[N+](=O)[O-]', 'inactive'),
  ('O=c1c(-c2ccccc2F)coc2cc(F)ccc12', 'inactive'),
  ('CC(=O)OCC1OC(n2c3c(cc(C#N)c2=S)CCCCCC3)C(OC(C)=O)C(OC(C)=O)C1OC(C)=O (stereo not drawn)', 'inactive'),
  ('COc1cccc2c1C(=O)c1c(O)c3c(c(O)c1C2=O)C[C@@](O)(C(=O)CO)C[C@@H]3OC1CC(N)CC(C)O1 (stereo partly drawn)', 'active'),
  ('COc1ccc(C2Oc3c(OC)cc(CCCO)cc3C2CO)cc1OC (stereo not drawn)', 'inactive'),
  ('NCCc1ccc2c(c1)C(=O)c1c(O)ccc(O)c1C2=O', 'inactive'),
  ('C=C(C)CCOC(c1ccccc1)(c1ccccc1)c1ccccc1', 'inactive'),
  ('Cc1cc2ccccc2n1CC(=O)N1CCCC1', 'inactive'),
  ('COc1ccccc1C1C(C(=O)O)=C(CO)Oc2cc3c(cc21)OCO3 (stereo not drawn)', 'inactive'),
  ('COc1ccc2nc3cc(Cl)ccc3c(NCCCNCc3cc(OC)c(OC)c(OC)c3)c2c1', 'inactive'),
  ('CCOC(=O)c1cnc2[nH]c(=O)c3ccccc3n2c1=O', 'inactive'),
  ('Cc1ccc(C2=C(c3ccccc3)C(Br)(c3ccc(C)cc3)C(c3ccccc3)=C2c2ccc(C)cc2)cc1', 'inactive'),
  ('Cc1cc(C(C)(C)C)cc(Cc2cc(C(C)(C)C)cc(Cc3cc(C(C)(C)C)cc(C)c3O)c2O)c1O', 'inactive'),
  ('O=C(NNc1ccccc1)c1ccc(Cl)c(Cl)c1', 'inactive'),
  ('O=Cc1c(Br)[nH]c2ccccc12', 'inactive'),
  ('C=CCNC1=NC(=O)C(CC(=O)Nc2cccc(Cl)c2)S1 (stereo not drawn)', 'inactive'),
  ('C[N+](C)(N)c1nc(N)c(C#N)c(C#N)c1C#N', 'inactive');
